Method summary: qHTS assay to test for compound auto fluorescence at 460 nm (blue) in HepG2 cell free culture (AID 720685)
Test conditions: Cell-free culture medium, blue autofluorescence 405/460 nm; series mostly up to 46 µM
Calls of active or inactive are those of the source. The call rests on the fitted dose curve; in most records, active means well fitted curve in the direction sought with a large enough effect in the repeat runs; inconclusive means weak or mixed curves; inactive means flat fitted curve, though single readings scatter. Positions of bridges follow the written chain, without caps; N, C: chain ends. Residues, ends and D or L forms follow the SMILES beside them.
Measurement type: outcome

Solved entries:
>>> value("CCCN(CC)C(CC)C(=O)Nc1c(C)cccc1C (stereo not given)")
"inactive"
>>> value("CC(C)(C)C(=O)OCOC(=O)[C@@H]1N2C(=O)[C@@H](N=CN3CCCCCC3)[C@H]2SC1(C)C")
"inactive"
>>> value("NCCCC[C@H](NC(=O)[C@@H]1CCCN1C(=O)[C@@H]1CSSC[C@H](NC(=O)CNC(=O)CNC(=O)CN)C(=O)N[C@@H](Cc2ccc(O)cc2)C(=O)N[C@@H](Cc2ccccc2)C(=O)N[C@@H](CCC(N)=O)C(=O)N[C@@H](CC(N)=O)C(=O)N1)C(=O)NCC(N)=O (H-GGGCYFQNCPKG-NH2; disulfide 4-9)")
"inactive"
>>> value("CCN(CC)c1ccc(N=Nc2ccc(S(=O)(=O)N(C)C)cc2)c(S(=O)(=O)NCC[n+]2ccccc2)c1")
"inactive"

Please find the next compound below.
Please fill in: outcome reported for CC(=O)Nc1ccc(OC(=O)c2ccccc2O)cc1 = inactive
